From: patent US4017622A

# System: Pseudomonas aeruginosa No. 12
# Experimental details: In vivo efficacy against systemic infection with Pseudomonas aeruginosa in mice
# Conditions used: NO.12, 168 h, male ddY-S mice, ip, twice, about 5 minutes and 6 hours after infection, observation 7 days
Value kind: ED50 (mg/kg)

In [3]: df
Out[3]:
                                   compound  value_kind  readout_qualifier  recorded_measurement
0   C=Cn1cc(C(=O)O)c(=O)c2ccc(N3CCNCC3)nc21        ED50                  =                   3.9
1  CCn1cc(C(=O)O)c(=O)c2ccc(N3CCN(C)CC3)cc21        ED50                  =                  91.4
2  C=Cn1cc(C(=O)O)c(=O)c2ccc(N3CCN(C)CC3)cc21        ED50                  =                  17.8
3       CCn1cc(C(=O)O)c(=O)c2ccc(N(C)C)nc21        ED50                  >                   100
4    CCn1cc(C(=O)O)c(=O)c2ccc(N3CCNCC3)cc21        ED50                  =                   6.3
5  CCn1cc(C(=O)O)c(=O)c2cnc(N3CCCC3)nc21 [PA, reference compound]        ED50                  >                   100
6    CCn1cc(C(=O)O)c(=O)c2ccc(N3CCNCC3)nc21        ED50                  =                   9.2
7  CCn1cc(C(=O)O)c(=O)c2cnc(N3CCN(C)CC3)cc21        ED50                  =                    50
8  C=Cn1cc(C(=O)O)c(=O)c2ccc(N3CCN(CC)CC3)cc21        ED50                  =                  19.3
